Origin of the recorded values: patent EP4534542A1

Tested on: T24 (human bladder cancer cells)
Assay: Cell viability assay (resazurin), cytotoxic activity against solid tumours
Format: cell-based
Details: Homo sapiens; 72 h treatment, resazurin assay, mean ± SEM; read-out: IC50 T24 (Bladder cancer)
VALUE_KIND: IC50

>>> result("CC(=O)OCC1OC([S+](C)[O-])C(OC(C)=O)C(N=C=S)C1OC(C)=O (stereo not drawn) [(SS)-16β]")
"94.2 µM"
>>> result("CC(=O)OC[C@H]1O[C@H](Sc2ccccc2)[C@H](OC(C)=O)[C@@H](N=C=S)[C@@H]1OC(C)=O")
"15.3 µM"
>>> result("CC[S@+]([O-])[C@@H]1O[C@H](COC(C)=O)[C@@H](OC(C)=O)[C@H](N=C=S)[C@H]1OC(C)=O [(SS)-17β]")
"42.3 µM"
>>> result("CC(=O)OC[C@H]1O[C@@H]([S@@+]([O-])c2ccccc2)[C@H](OC(C)=O)[C@@H](N=C=S)[C@@H]1OC(C)=O [(SS)-18β]")
"12.9 µM"

* * *

Here the recorded IC50 is given for each entry.
Test system: Jurkat (Acute lymphoblastic leukaemia)
Test: Antileukemic activity, cell viability (CCK-8 Cell Counting Kit)
Type: cell-based
Settings: Homo sapiens, 18 h incubation, compounds 0 - 100 µM, read-out: IC50 Cancer cells Jurkat (Acute lymphoblastic leukaemia)
VALUE_KIND: IC50

>>> result("CC(=O)OC[C@H]1O[C@H]([S@+]([O-])c2ccccc2)[C@H](OC(C)=O)[C@@H](N=C=S)[C@@H]1OC(C)=O [(RS)-18α]")
"46.3 µM"
>>> result("CS[C@@H]1O[C@H](COC(C)=O)[C@@H](OC(C)=O)[C@H](N=C=S)[C@H]1OC(C)=O")
"18.7 µM"
>>> result("CCS(=O)(=O)[C@H]1O[C@H](COC(C)=O)[C@@H](OC(C)=O)[C@H](N=C=S)[C@H]1OC(C)=O")
"30.3 µM"
>>> result("CC(=O)OC[C@H]1O[C@@H](S(C)(=O)=O)[C@H](OC(C)=O)[C@@H](N=C=S)[C@@H]1OC(C)=O")
"37.1 µM"

* * *

Tested on: MeWo (human melanoma cells)
Assay: Cell viability assay (resazurin), cytotoxic activity against solid tumours
Assay type: cell-based
Conditions: 72 h treatment, resazurin assay, mean ± SEM; read-out: IC50 MeWo (Melanoma; BRAF WT)
VALUE_KIND: IC50 (nM)

>>> quantitative_readout("N.N.[Cl][Pt][Cl] [Cisplatin, reference compound]")
2200

* * *

System: A549 (human lung adenocarcinoma cells)
Test: Cell viability assay (resazurin), cytotoxic activity against solid tumours
Format: cell-based
Conditions: Homo sapiens, A549; 72 h treatment, resazurin assay, mean ± SEM; read-out: IC50 A549 (Lung adenocarcino ma)
VALUE_KIND: log10 of IC50 (log10 of the value in µM)

>>> quantitative_readout("CCS[C@H]1O[C@H](COC(C)=O)[C@@H](OC(C)=O)[C@H](N=C=S)[C@H]1OC(C)=O [Compound 14α]")
1.61
>>> quantitative_readout("CC(=O)OC[C@H]1O[C@@H]([S@@+]([O-])c2ccccc2)[C@H](OC(C)=O)[C@@H](N=C=S)[C@@H]1OC(C)=O [(SS)-18β]")
1.23
>>> quantitative_readout("CC(=O)OC[C@H]1O[C@@H]([S@+]([O-])c2ccccc2)[C@H](OC(C)=O)[C@@H](N=C=S)[C@@H]1OC(C)=O [(RS)-18β]")
1.34
>>> quantitative_readout("CC(=O)OC[C@H]1O[C@@H](Sc2ccccc2)[C@H](OC(C)=O)[C@@H](N=C=S)[C@@H]1OC(C)=O [Compound 15β]")
1.51
>>> quantitative_readout("CC(=O)OC[C@H]1O[C@H]([S@+]([O-])c2ccccc2)[C@H](OC(C)=O)[C@@H](N=C=S)[C@@H]1OC(C)=O [(RS)-18α]")
1.75
>>> quantitative_readout("CC(=O)OCC1OC([S+](C)[O-])C(OC(C)=O)C(N=C=S)C1OC(C)=O (stereo not drawn) [(SS)-16β]")
2.04
>>> quantitative_readout("CC[S@+]([O-])[C@@H]1O[C@H](COC(C)=O)[C@@H](OC(C)=O)[C@H](N=C=S)[C@H]1OC(C)=O [(SS)-17β]")
1.75
>>> quantitative_readout("CS[C@@H]1O[C@H](COC(C)=O)[C@@H](OC(C)=O)[C@H](N=C=S)[C@H]1OC(C)=O [Compound 13β]")
1.71
>>> quantitative_readout("C[S+]([O-])CCCCN=C=S (stereo not drawn) [SFN, sulforaphane, reference compound]")
1.03
>>> quantitative_readout("CC[S@@+]([O-])[C@H]1O[C@H](COC(C)=O)[C@@H](OC(C)=O)[C@H](N=C=S)[C@H]1OC(C)=O [(RS)-17α]")
2.03
>>> quantitative_readout("CCS[C@@H]1O[C@H](COC(C)=O)[C@@H](OC(C)=O)[C@H](N=C=S)[C@H]1OC(C)=O [Compound 14β]")
1.65
>>> quantitative_readout("CC(=O)OC[C@H]1O[C@H](Sc2ccccc2)[C@H](OC(C)=O)[C@@H](N=C=S)[C@@H]1OC(C)=O [Compound 15α]")
1.15
